system: NCI-H460 lung; test: NCI tumour cell line growth inhibition, 48 h
Endpoint name: TGI

Q: Given the entry Cc1cc(C)cc(Sc2c([N+](=O)[O-])ncn2C)c1 , report its measured TGI.
Result: > 100 µM

Q: Which TGI reading was recorded for the compound Cc1cc(-c2nc(-c3ccc(OC(F)(F)F)cc3)no2)nn1Cc1ccnc(N2CCN(C3CC3)CC2)c1 ?
Result: 55.3 µM

Q: Name the reported TGI value associated with the compound O=C(O)CCC1(Br)CCCCC(Br)C1=O (configuration not stated)
Result: > 100 µM

Q: Consider the compound shown here: COc1cccc(NC(=O)CC(=O)N2NC(C)C(N=Nc3cccc(C(=O)O)c3)C2=O)c1 (configuration not stated) What is its recorded TGI?
Result: > 100 µM

Q: Endpoint output: TGI of COc1ccc2c(c1)nc1n2C(c2c(F)cccc2Cl)SC1 (configuration not stated) . Value?
Result: > 35.1 µM

Q: Any idea what its TGI is? The compound is N#CN1CCC[C@H]1C(=O)N1CCc2c(-c3[nH]nc4ncccc34)cccc21
Result: 11.1 µM

Q: Query (compound): Cc1ccc(/C(=C/C=C(C#N)C#N)Sc2cc(Cl)ccc2Cl)cc1 ; field requested: TGI
Result: > 100 µM

From: PubChem BioAssay (NCI)
